Entries and their measured tissue uptake at 0.07 µM follow.
experiment: Biodistribution in liver of C57/BL6 mouse bearing B16 cells at 0.07 uM, iv; format: ADME, organism-based, C57Bl/6; details: read-out: Drug uptake
Give the value in %ID/g but do not write %ID/g after it.

smilesrepresentation=CCN(CC)CCNC(=O)c1ccc(C(=O)N[C@@H](CC(C)C)C(=O)N[C@@H](CC(C)C)C(=O)N[C@H](C=O)CC(C)C)c([125I])c1.Cl quantitymeasured="tissue uptake at 0.07 µM" unitabbreviation=%ID/g reportedresult=8.9

Query :: # tissue uptake at 0.07 µM lookup, item CCN(CC)CCNC(=O)c1ccc(C(=O)N[C@@H](CC(C)C)C(=O)N[C@@H](CC(C)C)C(=O)N[C@H](C=O)CC(C)C)cc1
Result :: 5.95

Each recorded value in this set is attributed to ChEMBL document CHEMBL1141594.
